# Assay System: human GPBAR1 (Homo sapiens)
# Sequence (Q8TDU6 1-330): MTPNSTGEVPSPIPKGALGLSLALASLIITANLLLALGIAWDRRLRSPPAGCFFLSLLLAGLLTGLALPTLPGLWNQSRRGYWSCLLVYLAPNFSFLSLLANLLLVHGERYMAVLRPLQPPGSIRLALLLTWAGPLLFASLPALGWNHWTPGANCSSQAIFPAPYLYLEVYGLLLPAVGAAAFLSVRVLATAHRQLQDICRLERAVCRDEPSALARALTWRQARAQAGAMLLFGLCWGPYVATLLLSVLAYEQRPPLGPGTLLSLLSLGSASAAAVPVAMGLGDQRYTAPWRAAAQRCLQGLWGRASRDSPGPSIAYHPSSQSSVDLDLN
# Assay Comment: GPBAR1 transactivation (CRE-luciferase) in HEK-293T cells
# Condition Notes: transactivation, agonism; read-out: GPBAR1 EC50 Transact
Experimental Endpoint: pEC50
Scale: pEC50 equals -log10([C]), with [C] in mol/L.

Name the recorded pEC50 for CC[C@H]1[C@@H](O)C2C3CC[C@H]([C@H](C)CCO)[C@@]3(C)CCC2[C@@]2(C)CC[C@@H](O)C[C@@H]12 (stereo partly shown) .
6.40
